All values here come from patent US8519149B2.

System name: Recombinant human mPGES-1 (Homo sapiens, UniProt O14684)
Sequence (O14684 whole entry): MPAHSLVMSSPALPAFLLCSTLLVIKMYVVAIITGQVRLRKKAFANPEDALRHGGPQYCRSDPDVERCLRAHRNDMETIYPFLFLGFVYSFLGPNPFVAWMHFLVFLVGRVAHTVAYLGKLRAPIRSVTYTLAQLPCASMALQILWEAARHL
Test details: In-vitro mPGES-1 enzyme inhibition assay (PGE2 formation from PGH2, HTRF detection)
Type: biochemical
Protocol conditions: 10 μM test compound; recombinant human mPGES-1 microsomal fraction; read-out: Percentage inhibition at 10 μM
So basically: inhibition at 10 µM at 90% or higher? That is Met. Lower than 90%? That is Not met.

compound="CC1(C)Cc2c(c(C(=O)NCC3CCCCC3)cc3nc(Nc4c(Cl)cncc4Cl)[nH]c23)O1 [Example-27]" answer_label=Met
compound="Cc1ccc(Nc2nc3cc(C(=O)NCc4ccc(C(F)(F)F)cc4)c4c(c3[nH]2)CC(C)(C)O4)c(Cl)c1 [Example-92]" answer_label="Not met"
compound="Cc1cccc(Cl)c1Nc1nc2cc(C(=O)Nc3ccc(C(F)(F)F)cn3)c3c(c2[nH]1)CC(C)(C)O3 [Example-124]" answer_label=Met
compound="CC1(C)Cc2c(c(C(=O)Nc3cc(C(F)F)ccc3F)cc3nc(Nc4c(F)cccc4Cl)[nH]c23)O1 [Example-131]" answer_label=Met
compound="CC1(C)Cc2c(c(C(=O)NC3(c4ccc(C(F)(F)F)cc4)CC3)cc3nc(Nc4c(F)cccc4Cl)[nH]c23)O1 [Example-116]" answer_label=Met
compound="CCCCCNC(=O)c1cc2nc(Nc3c(Cl)cccc3Cl)[nH]c2c2c1OC(C)(C)C2 [Example-9]" answer_label="Not met"

---

# inhibition at 1 µM per record follows
System name: Recombinant human mPGES-1 (Homo sapiens, UniProt O14684)
Test details: In-vitro mPGES-1 enzyme inhibition assay (PGE2 formation from PGH2, HTRF detection)
Format: biochemical
Protocol conditions: 1 μM test compound; recombinant human mPGES-1 microsomal fraction; read-out: Percentage inhibition at 1 μM
Endpoint name: inhibition at 1 µM (%)

structure=Cc1cccc(Cl)c1Nc1nc2cc(C(=O)Nc3cc(C(F)(F)F)ccc3F)c3c(c2[nH]1)CC(C)(C)O3 system_name="Recombinant human mPGES-1 (Homo sapiens, UniProt O14684)" meas_value=96.6
structure=Cc1nc2c(o1)c(C(=O)NC1CCC(F)(F)CC1)cc1nc(Nc3c(Cl)cccc3Cl)[nH]c12 system_name="Recombinant human mPGES-1 (Homo sapiens, UniProt O14684)" meas_value=53.9
structure=Cn1c(Nc2c(F)cccc2Cl)nc2cc(C(=O)Nc3ccc(C4CC4)cc3)c3c(c21)CC(C)(C)O3 system_name="Recombinant human mPGES-1 (Homo sapiens, UniProt O14684)" meas_value=96.9
structure=CCC(C)(C)NC(=O)c1cc2nc(Nc3c(Cl)cccc3Cl)[nH]c2c2c1OC(C)(C)C2 system_name="Recombinant human mPGES-1 (Homo sapiens, UniProt O14684)" meas_value=99.2

---

System name: Recombinant human mPGES-1 (Homo sapiens, UniProt O14684)
Test details: In-vitro mPGES-1 enzyme inhibition assay (PGE2 formation from PGH2, HTRF detection)
Assay type: biochemical
Protocol conditions: 1 μM test compound; recombinant human mPGES-1 microsomal fraction; read-out: Percentage inhibition at 1 μM
# inhibition at 1 µM per record follows
Endpoint name: inhibition at 1 µM (%)

compound=Cc1cccc(Cl)c1Nc1nc2cc(C(=O)Nc3ccc(C(F)(F)F)cn3)c3c(c2[nH]1)CC(C)(C)O3 system_name="Recombinant human mPGES-1 (Homo sapiens, UniProt O14684)" endpoint_name="inhibition at 1 µM" meas_value=97.1
compound=CC1(C)Cc2c(c(C(=O)Nc3cc(C4CC4)ccc3F)cc3nc(Nc4c(Cl)cccc4Cl)[nH]c23)O1 system_name="Recombinant human mPGES-1 (Homo sapiens, UniProt O14684)" endpoint_name="inhibition at 1 µM" meas_value=98.9
compound=Cc1cc2c(o1)c(C(=O)NC(C)(C)CC(C)(C)C)cc1nc(Nc3c(Cl)cncc3Cl)[nH]c12 system_name="Recombinant human mPGES-1 (Homo sapiens, UniProt O14684)" endpoint_name="inhibition at 1 µM" meas_value=95.5
compound=CC1(C)Cc2c(c(C(=O)Nc3cc(C(F)(F)F)ccc3F)cc3nc(NCc4ccccc4Cl)[nH]c23)O1 system_name="Recombinant human mPGES-1 (Homo sapiens, UniProt O14684)" endpoint_name="inhibition at 1 µM" meas_value=59.5
compound=Cc1cnc(NC(=O)c2cc3nc(Nc4c(Cl)cccc4Cl)[nH]c3c3c2OC(C)(C)C3)s1 system_name="Recombinant human mPGES-1 (Homo sapiens, UniProt O14684)" endpoint_name="inhibition at 1 µM" meas_value=88.7
compound=CC1(C)Cc2c(c(C(=O)NC3(c4ccc(C(F)(F)F)cc4)CC3)cc3nc(Nc4c(F)cccc4Cl)[nH]c23)O1 system_name="Recombinant human mPGES-1 (Homo sapiens, UniProt O14684)" endpoint_name="inhibition at 1 µM" meas_value=96.9
compound="Cc1cc2c(o1)c(C(=O)NC(C)C(C)(C)C)cc1nc(Nc3c(Cl)cncc3Cl)[nH]c12 (stereo not drawn)" system_name="Recombinant human mPGES-1 (Homo sapiens, UniProt O14684)" endpoint_name="inhibition at 1 µM" meas_value=94
compound=CC1(C)Cc2c(c(C(=O)Nc3ccccc3C(F)(F)F)cc3nc(Nc4c(Cl)cccc4Cl)[nH]c23)O1 system_name="Recombinant human mPGES-1 (Homo sapiens, UniProt O14684)" endpoint_name="inhibition at 1 µM" meas_value=94.8
compound=CC1(C)Cc2c(c(C(=O)NCC3CCCCC3)cc3nc(Nc4c(F)cccc4Cl)[nH]c23)O1 system_name="Recombinant human mPGES-1 (Homo sapiens, UniProt O14684)" endpoint_name="inhibition at 1 µM" meas_value=83.2
compound=Cc1cc2c(o1)c(C(=O)NC1CCCCC1)cc1nc(Nc3c(Cl)cccc3Cl)[nH]c12 system_name="Recombinant human mPGES-1 (Homo sapiens, UniProt O14684)" endpoint_name="inhibition at 1 µM" meas_value=94.2
compound=CC1(C)Cc2c(c(C(=O)NC3(c4ccccc4C(F)(F)F)CC3)cc3nc(Nc4c(F)cccc4Cl)[nH]c23)O1 system_name="Recombinant human mPGES-1 (Homo sapiens, UniProt O14684)" endpoint_name="inhibition at 1 µM" meas_value=97
compound=Cn1c(Nc2c(Cl)cncc2Cl)nc2cc(C(=O)Nc3cccc(C(F)(F)F)c3)c3c(c21)CC(C)(C)O3 system_name="Recombinant human mPGES-1 (Homo sapiens, UniProt O14684)" endpoint_name="inhibition at 1 µM" meas_value=98.4
compound=Cc1cccc(Cl)c1Nc1nc2cc(C(=O)Nc3cccc(C(C)(F)F)c3)c3c(c2[nH]1)CC(C)(C)O3 system_name="Recombinant human mPGES-1 (Homo sapiens, UniProt O14684)" endpoint_name="inhibition at 1 µM" meas_value=90.5
compound=CC1(C)Cc2c(c(C(=O)Nc3cc(F)c(F)cc3F)cc3nc(Nc4c(Cl)cncc4Cl)[nH]c23)O1 system_name="Recombinant human mPGES-1 (Homo sapiens, UniProt O14684)" endpoint_name="inhibition at 1 µM" meas_value=99.4
compound=Cc1ccc(Cl)c(Nc2nc3cc(C(=O)Nc4cccc(C(F)(F)F)c4)c4c(c3[nH]2)CC(C)(C)O4)c1 system_name="Recombinant human mPGES-1 (Homo sapiens, UniProt O14684)" endpoint_name="inhibition at 1 µM" meas_value=91.1

---

# inhibition at 10 µM per record follows
System name: Recombinant human mPGES-1 (Homo sapiens)
Test details: In-vitro mPGES-1 enzyme inhibition assay (PGE2 formation from PGH2, HTRF detection)
Assay type: biochemical
Protocol conditions: 10 μM test compound; recombinant human mPGES-1 microsomal fraction; read-out: Percentage inhibition at 10 μM
Endpoint name: inhibition at 10 µM (%)

structure=COCCn1c(Nc2c(Cl)cccc2Cl)nc2cc(C(=O)Nc3ccc(C(F)(F)F)cc3)c3c(c21)CC(C)(C)O3 system_name="Recombinant human mPGES-1 (Homo sapiens)" unit_text=% meas_value=99.7
structure=CC1(C)Cc2c(c(C(=O)Nc3ccc(F)c(F)c3F)cc3nc(Nc4c(Cl)cncc4Cl)[nH]c23)O1 system_name="Recombinant human mPGES-1 (Homo sapiens)" unit_text=% meas_value=98.8
structure=Cc1cc2c(o1)c(C(=O)NCC1CCCCC1)cc1nc(Nc3c(F)cccc3Cl)[nH]c12 system_name="Recombinant human mPGES-1 (Homo sapiens)" unit_text=% meas_value=96.1
structure=CC1(C)Cc2c(c(C(=O)Nc3ccc(F)c(C(F)(F)F)c3)cc3nc(Nc4c(Cl)cncc4Cl)[nH]c23)O1 system_name="Recombinant human mPGES-1 (Homo sapiens)" unit_text=% meas_value=98.8
structure=Cc1ccc(NC(=O)c2cc3nc(Nc4c(Cl)cncc4Cl)[nH]c3c3c2OC(C)(C)C3)c(Cl)c1 system_name="Recombinant human mPGES-1 (Homo sapiens)" unit_text=% meas_value=99.7
structure=Cc1cccc(Cl)c1Nc1nc2cc(C(=O)Nc3ccc(F)c(F)c3F)c3c(c2[nH]1)CC(C)(C)O3 system_name="Recombinant human mPGES-1 (Homo sapiens)" unit_text=% meas_value=100
structure=Cc1ccc(Cl)c(Nc2nc3cc(C(=O)Nc4ccccc4C(F)(F)F)c4c(c3[nH]2)CC(C)(C)O4)c1 system_name="Recombinant human mPGES-1 (Homo sapiens)" unit_text=% meas_value=95.3
structure=Cc1csc(NC(=O)c2cc3nc(Nc4c(F)cccc4Cl)[nH]c3c3c2OC(C)(C)C3)n1 system_name="Recombinant human mPGES-1 (Homo sapiens)" unit_text=% meas_value=92.8
structure=CC1(C)Cc2c(c(C(=O)Nc3ccc(C(F)(F)F)cc3)cc3nc(Nc4c(Cl)cncc4Cl)[nH]c23)O1 system_name="Recombinant human mPGES-1 (Homo sapiens)" unit_text=% meas_value=91.8
structure=CC1(C)Cc2c(c(C(=O)Nc3ccc(N4CCCC4)nc3)cc3nc(Nc4c(Cl)cccc4Cl)[nH]c23)O1 system_name="Recombinant human mPGES-1 (Homo sapiens)" unit_text=% meas_value=95.1
structure=COCCn1c(Nc2c(Cl)cccc2Cl)nc2cc(C(=O)Nc3ccccc3C(F)(F)F)c3c(c21)CC(C)(C)O3 system_name="Recombinant human mPGES-1 (Homo sapiens)" unit_text=% meas_value=95.6
structure=Cc1nc2c(o1)c(C(=O)Nc1ccc(Br)cc1)cc1nc(Nc3c(Cl)cccc3Cl)[nH]c12 system_name="Recombinant human mPGES-1 (Homo sapiens)" unit_text=% meas_value=97.4
structure=Cc1nc(NC(=O)c2cc3nc(Nc4c(F)cccc4Cl)[nH]c3c3c2OC(C)(C)C3)sc1C system_name="Recombinant human mPGES-1 (Homo sapiens)" unit_text=% meas_value=94.2
structure=CC(C)(C)c1ccc(NC(=O)c2cc3nc(Nc4c(Cl)cccc4Cl)[nH]c3c3nc(C4CC4)oc23)cc1 system_name="Recombinant human mPGES-1 (Homo sapiens)" unit_text=% meas_value=95.9
structure=Cc1cc2c(o1)c(C(=O)Nc1ccc(Br)cc1)cc1nc(Nc3c(Cl)cccc3Cl)[nH]c12 system_name="Recombinant human mPGES-1 (Homo sapiens)" unit_text=% meas_value=95.2
